System: Cryptococcus neoformans IAM 4514
testDescription: MIC, two-fold agar dilution, C. neoformans IAM 4514
Format: cell-based
runConditions: IAM4514; Cryptococcus neoformans IAM 4514; YMA pH 7.0, 28° C., 40 hours; read-out: MIC
Reported MIC values follow for various compounds
Reply with just the number (in µg/mL).

Answered examples (3):
CN[C@@H]1[C@H](O[C@@H]2OC[C@@H](O)[C@H](O)[C@H]2O)[C@@H](O)[C@H](O[C@H]2c3cc(C)c(C(=O)N[C@H](CO)C(=O)O)c(O)c3-c3c(cc4c(c3O)C(=O)c3cc(OC)cc(O)c3C4=O)[C@@H]2O)O[C@@H]1C [Pradimicin FA-1, reference compound]
0.8
COc1cc(O)c2c(c1)C(=O)c1c(cc3c(c1O)-c1c(cc(C)c(C(=O)N[C@H](C)C(=O)O)c1O)[C@H](O[C@@H]1O[C@H](C)[C@H](N)[C@H](O[C@@H]4OC[C@@H](O)[C@H](O)[C@H]4O)[C@H]1O)[C@H]3O)C2=O
0.8
COc1cc(O)c2c(c1)C(=O)c1c(cc3c(c1O)-c1c(cc(C)c(C(=O)N[C@H](CO)C(=O)O)c1O)[C@H](O[C@@H]1O[C@H](C)[C@H](N(C)C#N)[C@H](O[C@@H]4OC[C@@H](O)[C@H](O)[C@H]4O)[C@H]1O)[C@H]3O)C2=O
6.3

Turning now to a further record.
Sure, the documented MIC for COc1cc(O)c2c(c1)C(=O)c1c(cc3c(c1O)-c1c(cc(C)c(C(=O)N[C@H](C)C(=O)O)c1O)[C@H](O[C@@H]1O[C@H](C)[C@H](NC(=N)N[N+](=O)[O-])[C@H](O[C@@H]4OC[C@@H](O)[C@H](O)[C@H]4O)[C@H]1O)[C@H]3O)C2=O is 1.6
